Let's go through some recorded IC50 values for Serine/threonine-protein (Bos taurus, UniProt A0A3Q1MT31) together.
Answers are plain numbers, in nM.

C[C@@H]1COCCN1c1nc(-c2ncncc2F)cc(=O)n1C [US8940738, 2] : 19.7
Cc1cccc(N2CCN(c3nc(-c4ncncc4F)cc(=O)n3C)CC2)c1C [US8940738, 7] : 78.3

Cc1nc(-c2ccc([C@H]3CN(c4nc(-c5ncncc5F)cc(=O)n4C)CCO3)cc2)no1 [US8940738, 4] has a reported IC50 of 8.4
